target: C5aR (Homo sapiens, UniProt P21730); experiment: Intracellular calcium release assay in HMDM against rhC5a; settings: pIC50 ± SEM, C5a 1 nM, HMDM calcium release
readoutKind: pIC50
In plain terms, pIC50 is the concentration in mol/L turned into minus its base-10 logarithm.

{"compound": "CCc1cccc(CC)c1-c1cc(OC(C)C)c2c(n1)CCCC2Nc1ccccc1CCO (centres unmarked)", "pIC50": 8.80}

Attention now turns to another entry.
Look up pIC50 for this compound: COc1ccc2c(c1)C(C(=O)N(Cc1ccc(N(C)C)cc1)c1ccc(C(C)C)cc1)CCC2 (centres unmarked)
8.40

* * *

biological target: C5aR (Homo sapiens, UniProt P21730); experiment: Intracellular calcium release assay in HMDM against rhC5a; settings: pIC50 ± SEM, C5a 3 nM, HMDM calcium release
readoutKind: pIC50
The read-out pIC50 is expressed as -log10 of concentration in moles per litre.

Need pIC50 of COc1ccc2c(c1)C(C(=O)N(Cc1ccc(N(C)C)cc1)c1ccc(C(C)C)cc1)CCC2 (stereo not shown) [W54011] , thanks.
8.10

* * *

test: in vivo; conditions: male, Wistar, rat, in vivo, po
readoutKind: Tmax
Include the unit right after the number.

Give its Tmax value. Item: CC(=O)N[C@@H](Cc1ccccc1)C(=O)N[C@H]1CCCNC(=O)[C@H](CCCNC(=N)N)NC(=O)[C@H](Cc2c[nH]c3ccccc23)NC(=O)[C@@H](CC2CCCCC2)NC(=O)[C@@H]2CCCN2C1=O [3D53, Ac-Phe-[Orn-Pro-D-Cha-Trp-Arg]]
50 min

* * *

Assay: in vivo
Details: rat, in vivo
Description: Paw oedema was induced in male Wistar rats by intraplantar administration of C5aR-PA (350 μg per paw in 100 μL of saline control). Paw swelling (% area change from baseline) was recorded at indicated timepoints. […] C5aR antagonist was administering as an intravenous dose (1 mg/kg via an implanted jugular vein catheter in 50:50 DMSO/saline) versus an oral dose (10 mg/kg in olive oil, via gavage). Plasma was collected at various time points and analyzed. […]
readoutKind: Cmax (ng/mL)
Give a bare numeral; the unit ng/mL is implied.

Using the record for CC(=O)N[C@@H](Cc1ccccc1)C(=O)N[C@H]1CCCNC(=O)[C@H](CCCNC(=N)N)NC(=O)[C@H](Cc2c[nH]c3ccccc23)NC(=O)[C@@H](CC2CCCCC2)NC(=O)[C@@H]2CCCN2C1=O [3D53, Ac-Phe-[Orn-Pro-D-Cha-Trp-Arg]] , report its Cmax.
17.5

* * *

test: in vivo; settings: rat, in vivo
readoutKind: clearance (mL/min/kg)
Report the value in mL/min/kg with no unit label.

What clearance value was documented for this compound, CC(=O)N[C@@H](Cc1ccccc1)C(=O)N[C@H]1CCCNC(=O)[C@H](CCCNC(=N)N)NC(=O)[C@H](Cc2c[nH]c3ccccc23)NC(=O)[C@@H](CC2CCCCC2)NC(=O)[C@@H]2CCCN2C1=O [3D53, Ac-Phe-[Orn-Pro-D-Cha-Trp-Arg]] ?
52.1

* * *

// AUC lookup, one value per entry
experiment: Pharmacokinetics and oral bioavailability in rats (LCMS of plasma); conditions: male, Wistar, rat, plasma, iv, 1 mg/kg
// return the numeric value with its unit appended

{"compound": "COc1ccc2c(c1)C(C(=O)N(Cc1ccc(N(C)C)cc1)c1ccc(C(C)C)cc1)CCC2 (centres unmarked) [W54011]", "readoutKind": "AUC", "observedResult": "212 ng·h/mL"}

For the compound CCc1cccc(CC)c1-c1cc(OC(C)C)c2c(n1)CCCC2Nc1ccccc1CCO (centres unmarked) [JJ47] , what AUC is on record?
410 ng·h/mL

* * *

assay: Pharmacokinetics and oral bioavailability in rats (LCMS of plasma); details: male, Wistar, rat, plasma, oral, 10 mg/kg
Below, each of the compounds is paired with its reported Cmax value.
The reply should be a number in ng/mL, with the unit left off.

{"compound": "CCc1cccc(CC)c1-c1cc(OC(C)C)c2c(n1)CCCC2Nc1ccccc1CCO (centres unmarked)", "Cmax (ng/mL)": 127}

I am curious: what Cmax value has been reported for COc1ccc2c(c1)C(C(=O)N(Cc1ccc(N(C)C)cc1)c1ccc(C(C)C)cc1)CCC2 (centres unmarked) ?
484

* * *

Molecular target: C5aR (Homo sapiens)
Sequence (P21730 1-350): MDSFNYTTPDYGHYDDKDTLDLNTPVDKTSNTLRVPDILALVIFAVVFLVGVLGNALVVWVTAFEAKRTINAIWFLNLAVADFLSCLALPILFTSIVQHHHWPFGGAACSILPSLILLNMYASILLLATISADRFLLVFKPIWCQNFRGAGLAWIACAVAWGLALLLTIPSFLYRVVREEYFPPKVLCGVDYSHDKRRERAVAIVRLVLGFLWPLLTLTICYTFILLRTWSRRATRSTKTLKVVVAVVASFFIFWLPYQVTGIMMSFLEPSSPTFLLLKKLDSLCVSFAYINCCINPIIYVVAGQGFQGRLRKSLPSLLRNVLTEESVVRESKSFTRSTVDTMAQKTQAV
Experiment: Intracellular calcium release assay in HMDM against rhC5a
Conditions: IC50, C5a 3 nM, HMDM calcium release
Item-by-item account of IC50
Answer format: numeric, nM implied, no suffix.

{"compound": "CCc1cccc(CC)c1-c1cc(OC(C)C)c2c(n1)CCCC2Nc1ccccc1CCO (centres unmarked) [JJ47]", "studySystem": "C5aR (Homo sapiens)", "IC50 [nM]": 10}

Alright, here's another compound for you.
Reported IC50 for COc1ccc2c(c1)C(C(=O)N(Cc1ccc(N(C)C)cc1)c1ccc(C(C)C)cc1)CCC2 (centres unmarked) [W54011] : what is it?
9

* * *

Target: C5aR (Homo sapiens, UniProt P21730)
Sequence (P21730 1-350): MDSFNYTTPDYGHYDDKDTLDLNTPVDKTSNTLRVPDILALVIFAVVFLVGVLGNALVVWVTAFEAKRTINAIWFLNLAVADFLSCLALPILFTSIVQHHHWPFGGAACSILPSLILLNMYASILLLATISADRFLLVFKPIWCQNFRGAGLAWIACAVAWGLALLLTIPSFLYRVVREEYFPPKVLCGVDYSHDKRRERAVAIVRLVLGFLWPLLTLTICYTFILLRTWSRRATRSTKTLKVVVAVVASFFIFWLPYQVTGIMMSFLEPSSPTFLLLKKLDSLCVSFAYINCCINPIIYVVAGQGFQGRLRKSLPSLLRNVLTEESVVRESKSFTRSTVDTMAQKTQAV
Assay: Intracellular calcium release assay in HMDM against rhC5a
Conditions: IC50, C5a 1 nM, HMDM calcium release
readoutKind: IC50

Fill in the blank: the reported IC50 of CCc1cccc(CC)c1-c1cc(OC(C)C)c2c(n1)CCCC2Nc1ccccc1CCO (stereo not shown) [JJ47] is ____.
2 nM
